# PROTOCOL_SUMMARY: Cytotoxicity, MTT colorimetric test
# Format: cell-based, human
# CONDITION_SUMMARY: human
MEASURED_ATTRIBUTE: CC50 at 48 h (µM)

COMPOUND	MEASURED_ATTRIBUTE	READING
C[C@@H]1CC[C@@]2(OC1)O[C@H]1C[C@H]3[C@@H]4CCC5=CC(=O)CC[C@]5(C)[C@H]4CC[C@]3(C)[C@H]1[C@@H]2C [Compound 2, (25R)-4-Spirosten-3-one]	CC50 at 48 h	265
CC(=O)OC1C[C@H]2[C@@H]3CCC4=CC(=O)CC[C@]4(C)[C@H]3CC[C@]2(C)[C@H]1[C@H](C)C(=O)CC[C@@H](C)C=O (stereo partly shown)	CC50 at 48 h	424

* * *

Recorded CC50 at 48 h values for a group of compounds are listed next.
# PROTOCOL_SUMMARY: Cytotoxicity, MTT colorimetric test
# Assay type: cell-based, human
# CONDITION_SUMMARY: human

COMPOUND	MEASUREMENT_UNITS	CC50 at 48 h
CC(=O)OC[C@H](C)CCC(=O)[C@@H](C)[C@H]1C(OC(C)=O)C[C@H]2[C@@H]3CCC4=CC(=O)CC[C@]4(C)[C@H]3CC[C@]12C (some centres unmarked)	µM	281
CC1CCC2(OC1)OC1(O)CC3C4CCC56OC5C(=O)CCC6(C)C4CCC3(C)C1C2C (centres unmarked)	µM	153
CC1=CC[C@@]2(C)C(=C1)CC[C@H]1[C@@H]3C[C@@H]4O[C@]5(CC[C@@H](C)CO5)[C@@H](C)[C@@H]4[C@@]3(C)CC[C@@H]12 [Compound 7, (25R)-3-Methyl-spirostan-2,4-diene]	µM	217
C[C@@H](CO)CCC(=O)[C@@H](C)[C@H]1[C@@H](O)CC2C3CCC4=CC(=O)CC[C@]4(C)C3CC[C@@]21C (some centres unmarked)	µM	2150
CC(=O)OC1C[C@H]2[C@@H]3CCC4=CC(O)CC[C@]4(C)[C@H]3CC[C@]2(C)[C@H]1[C@H](C)C(O)CC[C@@H](C)CO (some centres unmarked)	µM	306
C[C@@H]1CC[C@@]2(OC1)O[C@H]1C[C@H]3[C@@H]4CC(=O)C5=CC(=O)CC[C@]5(C)[C@H]4CC[C@]3(C)[C@H]1[C@@H]2C [Compound 18, (25R)-4-Spirosten-3,6-dione]	µM	192
C[C@@H](CI)CCC(=O)[C@@H](C)[C@H]1C(=O)CC2C3CCC4=CC(=O)CC[C@]4(C)C3CC[C@@]21C (some centres unmarked)	µM	90.2
CC(=O)O[C@H]1CC2C3CCC4=CC(=O)CC[C@]4(C)C3CC[C@]2(C)[C@H]1[C@H](C)C(=O)CC[C@@H](C)CO (some centres unmarked)	µM	60

* * *

# PROTOCOL_SUMMARY: Cytotoxicity, MTT colorimetric test
# Assay type: cell-based, human
# CONDITION_SUMMARY: human
Recorded CC50 at 48 h values for a group of compounds are listed next.
MEASURED_ATTRIBUTE: CC50 at 48 h

COMPOUND	MEASURED_ATTRIBUTE	READING
C[C@@H]1CC[C@@]2(OC1)O[C@H]1C[C@H]3[C@@H]4CCC5=CC(O)(Cc6ccccc6)CC[C@]5(C)[C@H]4CC[C@]3(C)[C@H]1[C@@H]2C (stereo partly drawn) [Compound 8, (25R)-3-Benzyl-spirostan-4-en-3-ol]	CC50 at 48 h	> 1980 µM
CC(=O)O[C@H]1CC[C@@]2(C)C(=CCC3C4C[C@H](OC(C)=O)C(C(C)C5=C(C(C)=O)C[C@@H](C)CO5)[C@@]4(C)CCC32)C1 (stereo partly drawn) [Compound 20]	CC50 at 48 h	> 1900 µM
C[C@@H]1CC[C@@]2(OC1)O[C@H]1C[C@H]3[C@@H]4CC5OC56CC(O)CC[C@]6(C)[C@H]4CC[C@]3(C)[C@H]1[C@@H]2C (stereo partly drawn) [Compound 17, (25R)-5,6-Epoxy-spirostan-3-ol]	CC50 at 48 h	> 2050 µM

The measured values listed here are drawn from paper PMC6270258.
